These data points were gathered from PubChem BioAssay (NCI).

Property: growth; scope: individual molecules
- Test system: SK-MEL-28 melanoma
- protocol_notes: NCI-60 one-dose screen, 48 h (100 = growth as untreated, 0 = no growth, -100 = all killed)
- setup_conditions: 10 µM unless noted
This is part of a sample that, as a whole, favours compounds with a hit. Of some 83,000 tested, about 20% had one in any assay.
Give your result in % as a bare value.

Below are worked cases with known answers.
Ic1ccc(Nc2nc3nonc3nc2Nc2ccc(I)cc2)cc1: 12.2
O=C(O)CC(C(=O)O)/C(=C\c1ccccc1)c1ccccc1 (stereo not given): 103
C#CCOc1cccc(Nc2ncnc3cc(NC(=O)CCl)ccc23)c1: -30.6
O=C1CCC(C(=O)N/N=C/c2cc(F)ccc2F)N1 (stereo not given): 108
Cc1nc2sc(C(=O)Nc3cccc4ccccc34)c(N)c2cc1C(=O)c1ccccc1: 59.8
CS(=O)(=O)Nc1cc(-c2ccc3ncnc(Nc4ccc(F)c(Cl)c4)c3c2)ccc1Cl: 57.1
CCN1C(=O)N(c2ccccc2)C2NC(=S)N(/N=C/C=C/c3ccccc3OC)C21 (stereo not given): 57.7
Clc1ccc2nn3c4ccccc4c(OCCN4CCOCC4)nc3c2c1: 110

Value lookup for growth; key = CN1C(=O)/C(=C/c2ccc(C(=O)Nc3ncc(Cc4cc(Cl)ccc4Cl)s3)cc2)SC1=S 77

Form field: reported growth of COc1cc2c(c(OC)c1OC)C(=O)CC(c1cccc(C(=O)Nc3ccc(C#N)cc3)c1)O2 (stereo not given) 95.6
